# melting point listing for each entry below
metric.name: melting point

{"compound": "Cc1cccc(NCc2cn(-c3ccc4oc(=O)ccc4c3)nn2)c1C [Compound 6r]", "endpoint.value": "220 to 222 °C"}
{"compound": "O=c1ccc2cc(-n3cc(CNc4ccccc4F)nn3)ccc2o1 [Compound 6t]", "endpoint.value": "230 to 232 °C"}
{"compound": "Cc1ccc(NCc2cn(-c3ccc4oc(=O)ccc4c3)nn2)cc1 [Compound 6a]", "endpoint.value": "150 to 152 °C"}
{"compound": "O=c1ccc2cc(-n3cc(CNc4ccc(F)cc4)nn3)ccc2o1 [Compound 6l]", "endpoint.value": "210 to 212 °C"}
{"compound": "Cc1cc(C)c(NCc2cn(-c3ccc4oc(=O)ccc4c3)nn2)c(C)c1 [Compound 6g]", "endpoint.value": "157 to 159 °C"}
{"compound": "O=c1ccc2cc(-n3cc(CNc4cccc(C(F)(F)F)c4)nn3)ccc2o1 [Compound 6k]", "endpoint.value": "246 to 248 °C"}
{"compound": "Cc1cc(C)cc(NCc2cn(-c3ccc4oc(=O)ccc4c3)nn2)c1 [Compound 6n]", "endpoint.value": "191 to 194 °C"}
{"compound": "O=c1ccc2cc(-n3cc(CNc4ccc(Cl)cc4)nn3)ccc2o1 [Compound 6d]", "endpoint.value": "136 to 138 °C"}
{"compound": "O=c1ccc2cc(-n3cc(CNc4ccccc4I)nn3)ccc2o1 [Compound 6p]", "endpoint.value": "165 to 167 °C"}
